- Test system: ACHN renal
- protocol details: NCI-60 one-dose screen, 48 h
- run parameters: 10 µM unless noted
This is part of a sample that, as a whole, favours compounds with a hit. Of some 83,000 tested, about 20% had one in any assay. The source made the active and inactive calls. How the source made its calls: active means growth percent below 10; inactive means the rest.
Thanks in advance; please answer with one of these: 1 = active, -1 = inactive

Q: // return assay outcome for "c1ccc(-c2[nH]c3ccccc3c2-c2ccccc2)cc1"
A: -1

Q: Record: "Cc1n(Cc2ccc3ccccc3n2)cc[n+]1Cc1ccc2ccccc2c1"
A: -1

Q: Record: N#Cc1c(NN)n(C2OC(CO)C(O)C2O)c2ncnc(N)c12 (stereo unspecified)
A: 1

Q: Record: "C=CCn1c(C)nc2cc(Nc3nc(N4CCOCC4)nc4nc[nH]c34)ccc21"
A: -1
